// reported inhibition of growth at 100 µg/mL per item
- Test system: Aspergillus oryzae
- measurement-protocol: Antifungal activity against Aspergillus oryzae assessed as fungal growth inhibition at 100 ug/ml by micro-dilution method relative to control
- Assay type: functional
- condition-set: read-out: GI
Respond with a number, then the unit of measure.

Completed entries (count: 5):
O=C1CC[C@@H](C(=O)N/N=C/c2ccc(Cl)nc2)N1 | 0%
O=C1CCC(NNc2ccccn2)N1 (racemic) | 23%
O=C1CC[C@@H](C(=O)N/N=C/c2ccc(CO)o2)N1 | 0%
COc1ccc(/C=N/NC(=O)[C@@H]2CCC(=O)N2)cc1 | 24%
COc1cc(/C=N/NC(=O)[C@@H]2CCC(=O)N2)cc(OC)c1OC | 0%

# ---- query compound ----
Form: compound = O=C1CC[C@@H](C(=O)N/N=C/c2ccccc2)N1 ; inhibition of growth at 100 µg/mL = 0%

----------
- Test system: Pichia kudriavzevii
- measurement-protocol: Antifungal activity against Candida krusei assessed as fungal growth inhibition at 100 ug/ml by micro-dilution method relative to control
- Format: functional
- condition-set: read-out: GI
Short version: inhibition of growth at 100 µg/mL at least 50% is t, less is f.

Completed entries (count: 2):
CC(C)=CCC/C(C)=C/C=N/NC(=O)[C@@H]1CCC(=O)N1 | f
O=C1CCC(NNc2ccccc2)N1 (racemic) | f

Given the entry C=C(C)C1CC=C(/C=N/NC(=O)[C@@H]2CCC(=O)N2)CC1 (stereo partly specified) , answer whether its inhibition of growth at 100 µg/mL meets or surpasses 50%.
f

I'd appreciate it if you could say whether O=C1CC[C@@H](C(=O)N/N=C/c2ccc(CO)o2)N1 has inhibition of growth at 100 µg/mL at least equal to 50%.
t

Hello, I need to know if O=C1CC[C@@H](C(=O)N/N=C/c2cc(F)ccc2F)N1 has measured inhibition of growth at 100 µg/mL not below 50%. Thanks!
f

Given O=C1CC[C@@H](C(=O)N/N=C/c2cccc(C(F)(F)F)c2Cl)N1 , state whether its inhibition of growth at 100 µg/mL is at least 50%.
f

----------
- System: Kluyveromyces marxianus
- measurement-protocol: Antifungal activity against Candida pseudotropicalis assessed as fungal growth inhibition at 100 ug/ml by micro-dilution method relative to control
- Format: functional
- condition-set: read-out: GI
Binary call on inhibition of growth at 100 µg/mL: TRUE from 30% upward, FALSE beneath that.

Worked cases, answers included:
O=C1CC[C@@H](C(=O)N/N=C/c2ccc(Cl)nc2)N1 | FALSE
O=C1CCC(NNc2ccccc2)N1 (racemic) | TRUE
O=C1CCC(NNc2ccccn2)N1 (racemic) | FALSE

Now look at this entry.
Please indicate if the recorded inhibition of growth at 100 µg/mL for O=C1CC[C@@H](C(=O)N/N=C/c2ccc(CO)o2)N1 meets or exceeds 30%.
FALSE

----------
- Test system: Pichia kudriavzevii
- measurement-protocol: Antifungal activity against Candida krusei assessed as fungal growth inhibition at 100 ug/ml by micro-dilution method relative to control
- Type: functional
- condition-set: read-out: GI
// inhibition of growth at 100 µg/mL lookup, one value per entry
Form entry: value (%) — number only.

O=C1CCC(NNc2cc(F)ccc2F)N1 (racemic) | 20

O=C1CC[C@@H](C(=O)N/N=C/c2ccccc2O)N1 has a reported inhibition of growth at 100 µg/mL of 38

Noted for O=C1CC[C@@H](C(=O)N/N=C/c2ccccc2[N+](=O)[O-])N1 : its inhibition of growth at 100 µg/mL reads 0

Cc1ccc(/C=N/NC(=O)[C@@H]2CCC(=O)N2)cc1 has a reported inhibition of growth at 100 µg/mL of 28

Note to self: inhibition of growth at 100 µg/mL recorded for COc1ccc(/C=N/NC(=O)[C@@H]2CCC(=O)N2)cc1 was 40
